Experiment: solvent given as SMILES
Conditions: in CCCO
Decision: fluorescence lifetime >= 5 ns yields Met, all other cases yield Not met.

- molecule: "Cc1cc(=O)c2ccc(N)cc2o1"
  assigned-label: "Not met"
- molecule: "O=C(O)c1c2ccccc2nc2ccccc12"
  assigned-label: "Not met"
- molecule: "O=C1c2ccccc2-c2ccc(N3CCN(c4ccccc4)CC3)c3cccc1c23"
  assigned-label: "Not met"
- molecule: "CCN(CC)c1ccc2c(-c3ccccc3C(=O)[O-])c3ccc(=[N+](CC)CC)cc-3oc2c1"
  assigned-label: "Not met"
- molecule: "CN1CCN(c2ccc3c4c(cccc24)C(=O)c2ccccc2-3)CC1"
  assigned-label: "Not met"
- molecule: "COc1ccc(C#Cc2ccc(C#N)cc2)cc1OC"
  assigned-label: "Not met"
- molecule: "C#CCN1C(=O)/C(=C/c2cc(OC(C)C)ccc2OC(C)C)N=C1C"
  assigned-label: "Not met"
- molecule: "COc1cccc2c1C(=O)c1ccccc1-2"
  assigned-label: "Met"
- molecule: "ClC(Cl)=C1c2ccccc2C(C2(Cl)c3ccccc3C(=C(Cl)Cl)c3ccccc32)c2ccccc21 (centres undefined)"
  assigned-label: "Met"
